# target.system: Arginase (Homo sapiens, UniProt P05089)
# Construct: Arginase protein was recombinantly expressed in Escherichia coli
# experiment.summary: Arginase Thioornithine Generating Assay (TOGA)
# applied.conditions: recombinant arginase 1.88 nM, thioarginine substrate
pIC50: −log10 of the molar value.
result.type: pIC50

Please review the following examples before continuing.
compound	target.system	result.type	observed.result
CC(C)[C@H](N)C(=O)N1C[C@@H]2C[C@@](N)(C(=O)O)[C@@H](CCCB(O)O)[C@@H]2C1 [Example 42]	Arginase (Homo sapiens, UniProt P05089)	pIC50	7.28
CN1C[C@@H]2C[C@@](N)(C(=O)O)[C@@H](CCCB(O)O)[C@@H]2C1 [Example 2]	Arginase (Homo sapiens, UniProt P05089)	pIC50	7.08
N[C@@]1(C(=O)O)C[C@H]2CN(CC(F)(F)F)C[C@H]2[C@@H]1CCCB(O)O [Example 10]	Arginase (Homo sapiens, UniProt P05089)	pIC50	5.28
N[C@@H](CO)C(=O)N1C[C@@H]2C[C@@](N)(C(=O)O)[C@@H](CCCB(O)O)[C@@H]2C1 [Example 6]	Arginase (Homo sapiens, UniProt P05089)	pIC50	6.75
C[C@H](N)C(=O)N[C@H]1C[C@@H]2C[C@@](N)(C(=O)O)[C@@H](CCCB(O)O)[C@@H]2C1 [Example 46]	Arginase (Homo sapiens, UniProt P05089)	pIC50	6.28
CN[C@@H]1C[C@@H]2C[C@@](N)(C(=O)O)[C@@H](CCCB(O)O)[C@@H]2C1 [Example 51a]	Arginase (Homo sapiens, UniProt P05089)	pIC50	7.48
CC(C)[C@H](N)C(=O)N[C@H]1C[C@@H]2C[C@@](N)(C(=O)O)[C@@H](CCCB(O)O)[C@@H]2C1 [Example 47]	Arginase (Homo sapiens, UniProt P05089)	pIC50	6.28
NC1(C(=O)O)CC2(CNC2)CC1CCCB(O)O (stereo not drawn) [Example 35a]	Arginase (Homo sapiens, UniProt P05089)	pIC50	6.63
N[C@@]1(C(=O)O)C[C@H]2C[C@H](O)C[C@H]2[C@@H]1CCCB(O)O [Example 44b]	Arginase (Homo sapiens, UniProt P05089)	pIC50	6.75
NCC(=O)N1C[C@@H]2C[C@@](N)(C(=O)O)[C@@H](CCCB(O)O)[C@@H]2C1 [Example 5]	Arginase (Homo sapiens, UniProt P05089)	pIC50	6.80

A: N[C@@]1(C(=O)O)C[C@H]2C[C@@H](O)C[C@H]2[C@@H]1CCCB(O)O [Example 44a]
B: C[C@H](N)C(=O)N1C[C@@H]2C[C@@](N)(C(=O)O)[C@@H](CCCB(O)O)[C@@H]2C1 [Example 4]
Between A and B , which one has the lower reported pIC50 value? # reply format: chosen label
A

====

# target.system: Arginase (Homo sapiens)
# Construct: Arginase protein was recombinantly expressed in Escherichia coli
# Sequence (P05089 1-322): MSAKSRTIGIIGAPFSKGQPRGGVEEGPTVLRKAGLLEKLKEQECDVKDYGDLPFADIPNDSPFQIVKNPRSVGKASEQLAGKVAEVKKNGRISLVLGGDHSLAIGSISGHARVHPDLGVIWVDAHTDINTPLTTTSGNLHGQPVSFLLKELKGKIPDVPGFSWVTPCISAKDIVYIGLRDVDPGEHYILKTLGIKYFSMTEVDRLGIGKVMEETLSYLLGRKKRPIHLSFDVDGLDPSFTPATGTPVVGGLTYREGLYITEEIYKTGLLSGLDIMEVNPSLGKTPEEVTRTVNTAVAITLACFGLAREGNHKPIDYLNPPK
# experiment.summary: Arginase Thioornithine Generating Assay (TOGA)
# Type: biochemical
# applied.conditions: Top Dose 10000 nM; read-out: Percent Inhibition at Top Dose
result.type: inhibition at 10 µM (%)

molecule	inhibition at 10 µM [%]
CN(C)C[C@]12C[C@H]1CC(CCCB(O)O)C2(N)C(=O)O (some centres unmarked) [Example 33a]	62.7
CN1CC[C@@H]2[C@H]1C[C@@H](CCCB(O)O)C2(N)C(=O)O (relative stereo) [Example 32]	97.2

I: N[C@@]1(C(=O)O)C[C@H]2CN(Cc3ccc(F)cc3)C[C@H]2[C@@H]1CCCB(O)O [Example 3]
II: NC1(C(=O)O)CN2CCNC[C@H]2C1CCCB(O)O (some centres unmarked) [Example 38a]
III: NC1(C(=O)O)CC2CCCC2C1CCCB(O)O (centres unmarked) [Example 34a]
Put these in order: smallest inhibition at 10 µM first, largest last. State the ranking by listing the labels in the requested order.
III, II, I

====

# target.system: Arginase (Homo sapiens, UniProt P05089)
# Construct: Arginase protein was recombinantly expressed in Escherichia coli
# Sequence (P05089 1-322): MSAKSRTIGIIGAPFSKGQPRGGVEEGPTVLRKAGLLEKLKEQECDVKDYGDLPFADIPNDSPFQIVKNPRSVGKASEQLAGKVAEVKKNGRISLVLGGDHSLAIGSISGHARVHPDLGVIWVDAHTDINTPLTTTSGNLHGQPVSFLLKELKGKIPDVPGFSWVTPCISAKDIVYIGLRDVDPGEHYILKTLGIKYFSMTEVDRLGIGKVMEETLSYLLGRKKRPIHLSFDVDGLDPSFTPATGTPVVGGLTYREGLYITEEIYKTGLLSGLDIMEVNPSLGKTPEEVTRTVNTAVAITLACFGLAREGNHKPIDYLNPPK
# experiment.summary: Arginase Thioornithine Generating Assay (TOGA)
# Type: biochemical
# applied.conditions: Top Dose 10000 nM; read-out: Percent Inhibition at Top Dose
result.type: inhibition at 10 µM (%)

molecule	units.label	inhibition at 10 µM
N[C@@]1(C(=O)O)C[C@H]2CN(CC(F)(F)F)C[C@H]2[C@@H]1CCCB(O)O	%	55.9
N[C@@]1(C(=O)O)C[C@H]2C(=O)NC[C@H]2[C@@H]1CCCB(O)O (single isomer, unassigned) [Example 23a]	%	86.5
NC1(C(=O)O)C(CCCB(O)O)C[C@H]2CNC[C@H]21 (mixture of isomers)	%	90.4
N[C@@]1(C(=O)O)C[C@H]2C[C@@H](NCC(F)(F)F)C[C@H]2[C@@H]1CCCB(O)O	%	85.9
CCN1C[C@@H]2C[C@@](N)(C(=O)O)[C@@H](CCCB(O)O)[C@@H]2C1	%	85.3
NC1(C(=O)O)c2cnccc2CC1CCCB(O)O (stereo not shown)	%	87.3
NC(=O)N1CC2CC(N)(C(=O)O)C(CCCB(O)O)C2C1 (single isomer, unassigned) [Example 17a]	%	90.6
NCC(=O)N1C[C@@H]2CC(N)(C(=O)O)C(CCCB(O)O)[C@@H]2C1 (stereo in doubt)	%	97.9
CC(C)[C@H](N)C(=O)N1C[C@@H]2C[C@@](N)(C(=O)O)[C@@H](CCCB(O)O)[C@@H]2C1	%	98
CC(C)N1C[C@@H]2C[C@@](N)(C(=O)O)[C@@H](CCCB(O)O)[C@@H]2C1	%	74.8
NC(=O)CN1CC2CC(N)(C(=O)O)C(CCCB(O)O)C2C1 (stereo not shown)	%	88.6
NC1(C(=O)O)CC2(CNC2)CC1CCCB(O)O (single isomer, unassigned) [Example 35c]	%	82.3
N[C@@H](CO)C(=O)N1C[C@@H]2C[C@@](N)(C(=O)O)[C@@H](CCCB(O)O)[C@@H]2C1	%	94.2
N=C(N)N1C[C@@H]2C[C@@](N)(C(=O)O)[C@@H](CCCB(O)O)[C@@H]2C1 (single isomer, unassigned) [Example 11a]	%	67.2
C[C@H](N)C(=O)N[C@H]1C[C@@H]2C[C@@](N)(C(=O)O)[C@@H](CCCB(O)O)[C@@H]2C1	%	96.8
CC(=O)N1C[C@@H]2C[C@@](N)(C(=O)O)[C@@H](CCCB(O)O)[C@@H]2C1	%	72.8

====

# target.system: Arginase (Homo sapiens)
# Construct: Arginase protein was recombinantly expressed in Escherichia coli
# experiment.summary: Arginase Thioornithine Generating Assay (TOGA)
# Type: biochemical
# applied.conditions: Top Dose 10000 nM; read-out: Percent Inhibition at Top Dose
result.type: inhibition at 10 µM (%)

molecule	observed.result
NC1(C(=O)O)CC2(CCCN2)CC1CCCB(O)O (centres unmarked) [Example 37a]	98
CC(C)[C@H](N)C(=O)N[C@H]1C[C@@H]2C[C@@](N)(C(=O)O)[C@@H](CCCB(O)O)[C@@H]2C1	94.2
CC1NC[C@@H]2[C@H]1CC(N)(C(=O)O)[C@H]2CCCB(O)O (some centres unmarked) [Example 31a]	89.9

P: N[C@@]1(C(=O)O)C[C@H]2CNC(=O)[C@H]2[C@@H]1CCCB(O)O (single isomer, unassigned) [Example 23b]
Q: N[C@@]1(C(=O)O)C[C@H]2C[C@@H](O)C[C@H]2[C@@H]1CCCB(O)O [Example 44a]
Between P and Q , which one has the lower reported inhibition at 10 µM value? # reply format: chosen label
P
